# protocolDetails: melting temperature; fluorescence melt of hairpins on a sequencing array, two-state fit, raised by 9.35 °C to match UV melts
# particulars: sodium 0.088 M
So basically: is Tm under 50 °C? Then 1 (yes). Not under? Then 0 (no).

// below: answered sequences
Req: Here's an entry: GTCGTTGAAAAACGAC ((((((....)))))) . Is its Tm below 50 °C?
Resp: 0 (no)

Req: Another: GACTTACGAAAGTACGTC (((.(((....))).)))
Resp: 1 (yes)

Req: Param item: GATCCGCCTCGGATC ((((((...))))))
Resp: 0 (no)

Continue with the sequence presented below.
Req: Determine if GTCTAAGAAATTAGAC ((((((....)))))) shows Tm strictly lower than 50 °C.
Resp: 1 (yes)
